Would you kindly list activity at 10 µM for each of these compounds?
Test system: ABIL (ammonia-binding liquid inoculum), nitrifying microbial enrichment containing both AOA and AOB
Assay: Nitrification inhibition assay on ABIL (ammonium consumption)
Format: cell-based
Conditions: 10 µM compound; structural variants outside formula (I); read-out: Relative nitrification (%) by ABIL treated with 10 µM compound
Report the value in % with no unit label.

Query: activity at 10 µM for COc1ccc(OCCC(=O)Nc2n[nH]c3ccccc23)cc1 ?
Result: 100

Query: Reported activity at 10 µM for Cc1nn(C)c2ncc(CNCCCN3CCc4ccccc43)cc12 : what is it?
Result: 97

Query: Requested read-out: activity at 10 µM. Entry: O=C(NCCCCc1ccccc1)c1n[nH]c2ccccc12
Result: 100

Query: Form field: reported activity at 10 µM of CC(O)CCN(C)S(=O)(=O)c1ccc2cn[nH]c2c1 (stereo not drawn)
Result: 97

Query: Look up activity at 10 µM for this compound: O=C(NCc1ccc(F)cc1C(F)(F)F)c1cccc2cn[nH]c12
Result: 100

Query: What value of measured activity at 10 µM is listed for Cc1nc2c(cnn2C(C)C)cc1C(=O)N1CCc2ccccc21 ?
Result: 100

Query: Need activity at 10 µM, item CCc1cccc(NC(=O)CCc2c(C)nc3c(c(C)nn3C)c2C)c1
Result: 96

Query: Need activity at 10 µM of CCOc1ccc(CN(CC)C(=O)c2n[nH]c3ccccc23)cc1OC , thanks.
Result: 100

Query: What value of activity at 10 µM has been recorded for this entry: CNC(=O)N(C)C(=O)c1cnc2c(cnn2C(C)C)c1
Result: 92

Query: Which activity at 10 µM is reported for this compound? CCCCc1nnc(NC(=O)c2n[nH]c3ccccc23)s1
Result: 86

Query: Endpoint output: activity at 10 µM of O=C1NCCN1c1cccc(NCc2cccc3cn[nH]c23)c1 . Value?
Result: 99

Query: Which value of activity at 10 µM has been reported for Cc1ccccc1OCCN(C)C(=O)c1n[nH]c2ccccc12 in the records?
Result: 100

Query: I am curious: what activity at 10 µM value has been reported for COC(=O)c1n[nH]c2ccc(NS(=O)(=O)c3ccc(Cl)c(Cl)c3)cc12 ?
Result: 90

Query: What activity at 10 µM value was documented for this compound, Cc1n[nH]c2ncc(CNCCc3ccsc3)cc12 ?
Result: 98

Query: # activity at 10 µM lookup, item CC(C)CC(CNC(=O)c1n[nH]c2ccccc12)N1CCOCC1 (stereo not drawn)
Result: 100

Query: Fill in the blank: the reported activity at 10 µM of CC(C)n1ncc2cc(C(=O)NCc3ccccc3OC(F)(F)F)cnc21 is ____.
Result: 98

Query: Recorded activity at 10 µM for Cc1nc2c(cnn2C(C)C)c(C)c1CCC(=O)NC12CC3CC(CC(C3)C1)C2 , please?
Result: 100

Query: Name the recorded activity at 10 µM for CC(C)n1ncc2cc(NC(=O)CCC3CCCO3)cnc21 (stereo not drawn) .
Result: 96

Query: Return reported activity at 10 µM; argument: CCOc1cc(C(=O)Nc2cnc3c(cnn3C(C)C)c2)c([N+](=O)[O-])cc1OC
Result: 100

Query: What does the data say about its activity at 10 µM? Entry: COc1ccc(OC)c(C(C)NC(=O)c2cnc3c(cnn3C(C)C)c2)c1 (stereo not drawn)
Result: 97

Query: Request the reported activity at 10 µM associated with CCC(C)(CC)NC(=O)COc1nn(C)c2nc(C)cc(C)c12
Result: 100

Query: Look up activity at 10 µM: COc1ccc(N2CC(C(=O)Nc3ccc4[nH]ncc4c3)CC2=O)cc1 (stereo not drawn)
Result: 100

Query: What does the data say about its activity at 10 µM? Entry: CC(CNC(=O)c1cccc2cn[nH]c12)CC1(C)OCCO1 (stereo not drawn)
Result: 100

Query: Requested field: activity at 10 µM. Item: CCC1CN(C(=O)CCc2c(C)nc3c(c(C)nn3C)c2C)CCO1 (stereo not drawn)
Result: 100

Query: Form field: reported activity at 10 µM of Cc1nc2c(c(C)nn2C)c(C)c1CCC(=O)N1CC(C)OC(C)C1 (stereo not drawn)
Result: 99

Query: Entry COC(=O)C1(CNCc2cccc3cn[nH]c23)CCOCC1 : reported activity at 10 µM = ?
Result: 100

Query: Entry under review: Cc1nn(C)c2ncc(CN3CCNCC3C)cc12 (stereo not drawn) . Reported activity at 10 µM?
Result: 100

Query: What does the record list as activity at 10 µM for Cc1n[nH]c2nc(C(F)(F)F)cc(C(F)(F)F)c12 ?
Result: 90

Query: Entry under review: Cc1cc(C)c2c(OCC(=O)N(CC(F)F)C3CC3)nn(C)c2n1 . Reported activity at 10 µM?
Result: 100

Query: // returns reported activity at 10 µM for input Cc1cc(C)c2c(OCC(=O)N3CCOCC3(C)C)nn(C)c2n1
Result: 99

Where do these numbers come from? They come from patent US20230357099A1.
